# credit: the MegaScale stability set (Tsuboyama et al. 2023)

B1: HEEH_KT_rd6_3632 (parent)
chain: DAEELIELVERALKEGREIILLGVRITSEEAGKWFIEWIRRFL

- Variants of: B1
- assay: folding stability dG (cDNA display proteolysis); higher = more stable
- protocol-conditions: PBS, room temperature
property: folding stability dG (kcal/mol)
One number for each entry, in kcal/mol.

{"variant-spec": "I39K", "unit-of-measure": "kcal/mol", "observed": 2.56}
{"variant-spec": "R25L", "unit-of-measure": "kcal/mol", "observed": 3.81}
{"variant-spec": "L8W", "unit-of-measure": "kcal/mol", "observed": 3.7}
{"variant-spec": "A12P", "unit-of-measure": "kcal/mol", "observed": 2.88}
{"variant-spec": "A31D", "unit-of-measure": "kcal/mol", "observed": 3.88}

# batch size: 2; output folding stability dG per entry
1. R17T
2. E10H

1. 3.45
2. 3.78
